# STUDY_TARGET: Thrombin-activated human FXIIIa (Homo sapiens, UniProt P00488)
# Construct: purchased Zedira GmbH T070
# Sequence (P00488 39-732 limits assumed): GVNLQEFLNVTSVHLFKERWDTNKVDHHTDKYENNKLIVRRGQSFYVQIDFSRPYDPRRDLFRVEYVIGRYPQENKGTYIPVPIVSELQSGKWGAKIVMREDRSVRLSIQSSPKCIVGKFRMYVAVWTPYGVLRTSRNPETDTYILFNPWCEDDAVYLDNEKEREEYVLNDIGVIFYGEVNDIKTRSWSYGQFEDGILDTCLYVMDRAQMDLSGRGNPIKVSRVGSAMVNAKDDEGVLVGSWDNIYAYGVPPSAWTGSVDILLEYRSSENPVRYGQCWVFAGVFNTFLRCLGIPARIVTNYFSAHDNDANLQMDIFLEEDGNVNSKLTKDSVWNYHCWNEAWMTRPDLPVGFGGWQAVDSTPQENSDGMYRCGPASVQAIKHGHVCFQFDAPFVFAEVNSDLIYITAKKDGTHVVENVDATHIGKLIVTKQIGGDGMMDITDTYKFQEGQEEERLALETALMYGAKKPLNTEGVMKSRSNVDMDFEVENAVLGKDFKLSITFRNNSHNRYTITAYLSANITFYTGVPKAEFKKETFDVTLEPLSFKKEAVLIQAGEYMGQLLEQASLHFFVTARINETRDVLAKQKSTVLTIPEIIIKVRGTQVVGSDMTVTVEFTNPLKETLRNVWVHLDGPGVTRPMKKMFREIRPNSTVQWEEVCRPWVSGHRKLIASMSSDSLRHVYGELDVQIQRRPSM
# ASSAY_REMARKS: Fluorescence-quenched A101 isopeptidase assay of FXIIIa inhibition kinetics
# Format: biochemical
# STUDY_CONDITIONS: dansyl and sulfonyl-naphthalene compounds; data afflicted by fluorescence interference and set aside; read-out: FXIIIa apparent Ki (interference)
PROPERTY_LABEL: pKi
pKi is a log-scale quantity: -log10 of the concentration expressed in molar.

Query (compound): C=CC(=O)NCC(NS(=O)(=O)CC(=O)O)C(=O)N1CCN(S(=O)(=O)c2cccc3c(N(C)C)cccc23)CC1 (centres unmarked) ; field requested: pKi
4.57

So what's the measured pKi for this one? C=CC(=O)NCC(NC(=O)CCC(=O)O)C(=O)N1CCN(S(=O)(=O)c2cccc3ccccc23)CC1 (centres unmarked)
4.19
